Values from ChEMBL document CHEMBL1201862

AC50, Cytochrome P450 2C9 (Homo sapiens): measured values

Recorded AC50, per entry:
COc1ccc(C(=O)NC2CCN(C(S)=Nc3cccc(C)c3)CC2)cc1	25.1 µM (inconclusive)
CS(=O)(=O)N1CC(C(=O)NC2CC2)Oc2ccc(Cl)cc21 (stereo not drawn)	10 µM (inconclusive)
CC(C)CN1CCC2(CC1)CCN(C(=O)c1cc(C(F)(F)F)cc(C(F)(F)F)c1)CC2	12.6 µM (inconclusive)
CCOC(=O)c1c(C)nc2sc3c(=O)n(-c4ccc(C(C)=O)cc4)nnc3c2c1-c1ccc(Cl)cc1	2.82 µM (inconclusive)
c1ccc2c(c1)-c1nc3ccccc3cc1[C@H]2N1CCOCC1	6.31 µM (inconclusive)
C=CCSc1nnc(NC(=O)COc2ccc3ccccc3c2)s1	8.91 µM (inconclusive)
COc1ccc(NC(=O)C(F)(F)F)cc1OC	39.8 µM (inconclusive)

AC50 of Cn1ncc(C#N)c1NC(=O)C1CC(c2ccc(Cl)cc2)=NO1 (stereo not drawn) on Cytochrome P450 2C9 (Homo sapiens)?
12.6 µM (inconclusive)
